assay_info: binders of probe aFSTL3 on microarray, primary screen, stem cell growth factor project, biochemical, small-molecule microarray, fluorescence 635/667 (AID 1064);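 further: measures binding of the biotinylated anti-FSTL3 antibody to printed compounds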
condition_description: higher = more signal
Assign composite z-score to each entry below.
API note: the answer field is a bare number with no unit suffix.

Problem: Reported composite z-score for CCOC(=O)C[C@H]1[C@H](OC(=O)Cc2ccc3c(c2)OCO3)[C@@H](NC(=O)C2CCCCC2)c2cc(OCCCO)ccc2N1C(=O)c1ccc2ccccc2n1 : what is it?
Result: 0.695

Problem: Entry to check: CCCCN1CC=CC23O[C@@H]4C=CCOC(=O)[C@@H]4[C@H]2C(=O)N(CCCO)[C@@H]3C1=O (some centres not stated)
Result: 0.594

Problem: Entry to check: [N-]=[N+]=NCc1ccccc1C[C@@]1(C(N)=O)N=C(c2ccc(OCCCO)cc2)O[C@@H]1c1ccccc1CN=[N+]=[N-]
Result: 0.517

Problem: Entry to check: C=CCN1C(=O)[C@@]2(O[C@@H](CCO)[C@H]([Si](C)(C)c3ccc(OC)cc3)[C@H]2C)c2cc(N3C(=O)c4ccccc4Oc4ccccc43)ccc21
Result: -0.033

Problem: Entry to check: CC(C)c1ccc(NN2C(C(O)c3ccco3)C=CC3C(=O)N(c4ccccc4)C(=O)C32)cc1 (configuration not stated)
Result: 0.447

Problem: Entry to check: COC(=O)[C@@]1(Cc2ccc(F)cc2)[C@H]2c3cc(C(=O)N4CCCC4)n(CCF)c3C[C@H]2CN1C(=O)c1ccccc1
Result: 0.999

Problem: Entry to check: O=C1NC(=O)C2C1C=CC(C(O)c1ccc(Br)cc1)N2Nc1ccccn1 (configuration not stated)
Result: 0.253
